Quick reference: Percent Effect of the listed items.
# System: Mycobacterium tuberculosis
# METHOD: Cornell M. t heat shock assay; note: in the data most compounds retested in dose-response had high values
# Assay type: functional, organism-based
# Set-up: dose or concentration left out as unconfirmed
Screen size: about 69,000 compounds; about 950 (1.4%) showed an effect of 50% or more. The full list was thinned out, with strong results kept by preference.
# unit: % | format: bare number

// Percent Effect value for CC1CN(CC2CCCCC2)CCN1c1ccc2nncn2n1 (stereo unspecified) : 16.09

Form: compound = COc1ccc2nnc(C(=O)NC3CCCC3)nc2c1 ; Percent Effect = 57.83

The measured Percent Effect associated with CCn1nc(C)c(CNC(=O)c2nnc3ccc(Cl)cc3n2)c1C reads 42.92

Value of Percent Effect reported for the compound O=C(NCC1CC1)Nc1cnc2cc(Cl)ccc2c1O is -11.98

// Percent Effect lookup, compound = O=C(CN1CCN(c2ccc3nncn3n2)CC1)NC1CCCCC1 , result: 57.46

Query CN1CCN(C(=O)c2nnc3ccc(Cl)cc3n2)CC1 yields Percent Effect of 68.14

// data source = ChEMBL document CHEMBL3988442
